Taken from the Human Domainome abundance scans (Beltran et al. 2025).

B1: Protein piccolo, residues 1058 to 1114; numbered along this chain, Q9Y6V0 (parent)
chain: TCPLCKTELNIGSKDPPNFNTCTECKNQVCNLCGFNPTPHLTEIQEWLCLNCQTQRA

# Variants of: B1
# ASSAY COMMENT: abundance fitness (aPCA) (normalised: wild type 0, dead -1); higher = more abundant; growth selection in yeast, the domain comes from the species named
# SETUP CONDITIONS: Homo sapiens
Reported abundance fitness is given for each of the following variants.

                            record_sequence  endpoint_result
0  TCPLCKTELNIGSKDPPNFNTCTECKNAVCNLCGFNPTPHLTEIQEWLCLNCQTQRA [Q28A]             0.09
1  TCPLCKTELNIGSKDPPNFNTCTECKMQVCNLCGFNPTPHLTEIQEWLCLNCQTQRA [N27M]           -0.088
2  TCPLCKTELNIGSKDPPNFNTCTECKNQVCNLCGFIPTPHLTEIQEWLCLNCQTQRA [N36I]           -0.129
3  TCPLCKTELNIGSKDPPNFNTCTECKNQVCNLCGFNPTPHLTEIQEWLCLNHQTQRA [C52H]           -0.273
4  TCPLCGTELNIGSKDPPNFNTCTECKNQVCNLCGFNPTPHLTEIQEWLCLNCQTQRA [K6G]           -0.507

Attention now shifts to the item below.
Query :: Form field: reported abundance fitness of TCPLCKTELNIGSKDPPNFNTCTECKNQVCNLCGFNPTPHLTEIQEWLCLNFQTQRA [C52F]
Result :: -1.06
